Reference source for all entries: patent US11608335B2

Target: human somatostatin receptor subtype 5 (Homo sapiens, UniProt P35346)
Sequence (P35346 whole entry): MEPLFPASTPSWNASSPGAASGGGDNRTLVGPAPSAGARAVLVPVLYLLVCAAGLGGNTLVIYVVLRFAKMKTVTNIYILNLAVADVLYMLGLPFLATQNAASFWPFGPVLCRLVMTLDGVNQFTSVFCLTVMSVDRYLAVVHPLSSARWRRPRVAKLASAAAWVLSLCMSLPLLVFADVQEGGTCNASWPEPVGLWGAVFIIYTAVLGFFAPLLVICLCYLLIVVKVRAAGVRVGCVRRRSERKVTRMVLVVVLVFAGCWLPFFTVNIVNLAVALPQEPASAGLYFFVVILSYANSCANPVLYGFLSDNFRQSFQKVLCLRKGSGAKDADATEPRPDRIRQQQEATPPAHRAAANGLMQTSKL
Assay: cAMP assay for SST5R (inhibition of cAMP via human SST5 receptor)
Observable: EC50

> print(dat)
                                   compound  observable  recorded.result
1  N#Cc1cc(-c2cncc(-c3nc4cccc(F)c4[nH]3)c2N2CC[C@H](N)C2)ccc1F [Compound 2-23]        EC50        < 0.01 µM
2  C[C@]1(N)CCN(c2c(-c3ccnc(C#N)c3)cncc2-c2nc3c(F)cccc3[nH]2)C1 [Compound 2-162]        EC50        < 0.01 µM
3  C#Cc1cccc2[nH]c(-c3cncc(-c4cccc(C#N)c4)c3N3CC[C@H](N)C3)nc12 [Compound 2-84]        EC50        < 0.01 µM
4  Cc1cccc2cc(-c3cncc(-c4cc(F)cc(C#N)c4)c3N3CC[C@H](N)C3)[nH]c12 [Compound 2-137]        EC50   0.01 to 0.1 µM
5  NCC1CN(c2c(-c3cc(F)cc(Cl)c3)cncc2-c2nc3cc(F)cc(F)c3[nH]2)C1 [Compound 1-39]        EC50        < 0.01 µM

Request: Fill in: EC50 of Cc1cc(F)cc(-c2cncc(-c3nc4ccc(Cl)cc4[nH]3)c2N2CC[C@H](N)C2)c1 [Compound 2-196] is ___
Result: 0.01 to 0.1 µM

Request: Fill in: EC50 of "Cc1cccc(-c2cncc(-c3nc4c(C)cccc4[nH]3)c2N2CCC(N)CC2)c1" is ___
Result: > 1 µM

Request: Fill in: EC50 of COc1cc(F)cc(-c2cncc(-c3nc4c(C)cccc4[nH]3)c2N2CC[C@H](N)C2)c1 [Compound 2-184] is ___
Result: < 0.01 µM
